These entries and their values trace back to PubChem BioAssay.

Test system: Wnt5a (protein binding on small-molecule microarray)
TEST_METHOD_NOTES: Wnt5a binders on small-molecule microarray, primary screen, biophysical, 635/667 nm fluorescence (AID 1142);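 note: fluorescence read at 667 nm with signal to noise per printed feature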
CONDITIONS: 635 nm fluorescence, higher = more signal
Record form. Attribute: composite z-score. Fill in for each entry.
One number for each entry.

See these solved cases before continuing.
{"COMPOUND": "O=C(O)[C@@]1(CCS(=O)(=O)c2ccccc2)COC(c2ccc(OCCCO)cc2)=N1", "composite z-score": -0.142}
{"COMPOUND": "C=CCNC(=O)[C@H]1[C@@H]2C(=O)O[C@@H](c3ccccc3)[C@@H](c3ccccc3)N2[C@@H](c2ccccc2OCCO)[C@]12C(=O)Nc1ccc(C#CC3=CCCCC3)cc12", "composite z-score": 0.291}
{"COMPOUND": "[N-]=[N+]=Nc1ccccc1C[C@@]1(C(=O)NCCN2CCOCC2)N=C(c2ccc(OCCCO)cc2)O[C@@H]1c1ccccc1", "composite z-score": 0.785}
{"COMPOUND": "CN(C)C(=O)[C@@]1(Cc2ccccc2)N=C(c2ccc(OCCCO)cc2)O[C@H]1c1ccccc1N=[N+]=[N-]", "composite z-score": 0.762}
{"COMPOUND": "CCC(CC)C(O)C1C=CC2C(=O)N(C)C(=O)C2N1Nc1ccccc1 (configuration not stated)", "composite z-score": 0.334}
{"COMPOUND": "COc1ccc([Si](C)(C)[C@@H]2[C@@H](CC(=O)N3Cc4ccccc4C[C@H]3CO)O[C@]3(C(=O)N(C)c4c(Br)cc(C)cc43)[C@H]2C)cc1", "composite z-score": 0.251}

Form: compound = "[N-]=[N+]=NCc1ccccc1C[C@]1(C(=O)N2CCOCC2)N=C(c2ccc(OCCCO)cc2)O[C@H]1c1ccccc1N=[N+]=[N-]" ; composite z-score = 0.774
